# Tested on: Human immunodeficiency virus 1
# Procedure Details: Inhibitory concentration against wild-type HIV-1 LAI Virus was determined
# Format: functional, organism-based
# Test Settings: Human immunodeficiency virus 1; read-out: IC50
Quantity Kind: pIC50
Please note pIC50 is a logarithmic value: minus log10 of concentration in mol/L. Answer with that number alone.

For orientation, consider the following solved cases.
Cc1cc(C)c(Sc2cn(C)c(=O)c(Nc3ccc(Cl)cc3)n2)c(C)c1
7.10
Cc1ccccc1Oc1nc(Nc2ccc(C#N)cc2)c(=O)n(C)c1C
8.30
Cc1cc(C)c(S(=O)(=O)c2cn(C)c(=O)c(Nc3ccc(C#N)cc3)n2)c(C)c1
8.10

Turning now to a further record.
Looking for the measured pIC50 of Cc1cc(C#N)cc(C)c1Oc1nc(Nc2ccc(C#N)cc2)c(=O)n(C)c1C , can you help? 8.22
